target: Luciferin 4-monooxygenase (Photinus pyralis) (UniProt P08659); assay: firefly luciferase enzyme inhibitors, primary screen, biochemical, luminescence, purified enzyme, 2006 set (AID 1141); conditions: SteadyGlo luminescence, 30 min, higher = more signal, called active from +8 up or from −8 down;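 further: cell-free assay with purified firefly luciferase at 100 ng per well in PBS; test concentration not given here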
Sequence (P08659 whole entry, looked up): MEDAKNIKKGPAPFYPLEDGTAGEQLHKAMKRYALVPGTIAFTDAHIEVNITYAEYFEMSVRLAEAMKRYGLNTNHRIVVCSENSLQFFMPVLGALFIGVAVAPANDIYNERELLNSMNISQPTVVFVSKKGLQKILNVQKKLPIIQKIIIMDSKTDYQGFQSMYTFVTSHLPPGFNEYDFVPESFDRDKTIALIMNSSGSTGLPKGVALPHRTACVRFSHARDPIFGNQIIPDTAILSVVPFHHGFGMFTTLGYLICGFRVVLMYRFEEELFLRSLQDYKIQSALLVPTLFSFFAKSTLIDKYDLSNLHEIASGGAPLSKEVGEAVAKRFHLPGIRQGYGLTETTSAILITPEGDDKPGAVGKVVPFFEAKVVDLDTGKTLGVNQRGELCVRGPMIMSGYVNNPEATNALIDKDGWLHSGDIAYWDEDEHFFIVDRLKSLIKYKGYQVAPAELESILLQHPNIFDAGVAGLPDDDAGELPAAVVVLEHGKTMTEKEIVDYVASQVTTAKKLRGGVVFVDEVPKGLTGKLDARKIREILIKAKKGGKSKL
Lab note: compare z-score against -0.2. Equal or greater, write YES. Smaller, write NO.

Worked examples follow.
| compound | label-class |
| --- | --- |
| CCCC[C@@H]1C[C@H]1[C@@H](NC(=O)c1ccccc1)c1ccc(C(=O)OC)cc1 | NO |
| C=C(CCCC)/C(=C/C[C@H](OC(=O)c1ccncc1)c1ccccc1OCCO)c1cnc2ccccc2c1 | NO |
| C=CC1(C(=O)OC)CC=C(C(=O)OC)CC1 (stereo not given) | YES |
| COCCOC(=O)N1C(=O)[C@@]2(c3cc(C#CCC(C(=O)OC)C(=O)OC)ccc31)[C@H](c1ccccc1OCCO)N1[C@H](c3ccccc3)[C@H](c3ccccc3)OC(=O)[C@H]1[C@@H]2C(=O)NC[C@H](O)c1ccccc1 | YES |
| CC(C)=CCN[C@H](CO)c1ccccc1 | YES |

**Query** Textbook exercise: given the entry COc1ccc(C(=O)Nc2ccc(CN3C(=O)[C@]4(O[C@H](CCO)[C@@H]([Si](C)(C)c5ccc(OC)cc5)[C@@H]4C)c4ccccc43)cc2)cc1 , state whether its z-score is greater than or equal to -0.2.
**Result** YES

**Query** Given the entry CC(C)OC(=O)C=C1C[C@@H](c2ccccn2)O[C@@H](c2ccccn2)O1 , answer whether its z-score meets or surpasses -0.2.
**Result** YES

###

z-score reference
target: Homeobox protein Hox-A13 (Mus musculus) (UniProt Q62424); test: inhibitors of HoxA13-DNA binding, primary screen, biochemical, fluorescence polarization, labeled oligonucleotide (AID 1185); conditions: 15 min, higher = more signal, called active from +8 up or from −8 down
Sequence (Q62424 whole entry, looked up): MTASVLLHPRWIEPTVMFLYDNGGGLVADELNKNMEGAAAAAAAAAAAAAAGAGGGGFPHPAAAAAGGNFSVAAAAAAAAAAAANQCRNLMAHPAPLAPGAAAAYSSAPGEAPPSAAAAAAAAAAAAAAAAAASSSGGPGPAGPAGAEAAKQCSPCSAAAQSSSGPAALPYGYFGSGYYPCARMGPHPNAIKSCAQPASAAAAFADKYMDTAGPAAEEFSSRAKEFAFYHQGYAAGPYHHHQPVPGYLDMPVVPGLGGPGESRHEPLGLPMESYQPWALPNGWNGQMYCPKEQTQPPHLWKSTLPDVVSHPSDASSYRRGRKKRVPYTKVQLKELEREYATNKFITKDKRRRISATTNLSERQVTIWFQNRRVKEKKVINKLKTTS
Reply with the value as a number alone.

| molecule | assayed-system | z-score |
| --- | --- | --- |
| O=C1O[C@H](c2ccccc2)[C@H](c2ccccc2)N2[C@H]1[C@@H](C(=O)N1CCCCCCC1)[C@]1(C(=O)Nc3ccc(C#CCCO)cc31)[C@H]2c1ccccc1OCCO | Homeobox protein Hox-A13 (Mus musculus) (UniProt Q62424) | 4.52 |
| C=C(C)[C@@H]1CC=C(C(O)C2C=CC3C(=O)N(C)C(=O)C3N2Nc2ccccc2)CC1 (some centres undefined) | Homeobox protein Hox-A13 (Mus musculus) (UniProt Q62424) | -4.59 |
| CC(C)C(=C=CC[C@@H](O)c1ccc(OCCO)cc1)C[C@@H](O)COCc1ccccc1 | Homeobox protein Hox-A13 (Mus musculus) (UniProt Q62424) | -3.75 |

**Query** Quick check: z-score on Homeobox protein Hox-A13 (Mus musculus) (UniProt Q62424), item O=C(CS)NCCCCCCNC(=O)[C@@H]1C[C@@H]2C(=O)N[C@@H](Cc3ccccc3)C(=O)N2[C@@H]1c1cccc(OCCO)c1 ?
**Result** -2.64

###

Reported values of z-score for individual entries
test: basal RPMI8226 viability, no added stimulus, profiling panel, cell-based, calcein-AM fluorescence, 48 h, PK04 Diversity Set (AID 1166); conditions: RPMI8226 myeloma viability, higher = more signal;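 further: cells grown under basal conditions without added stimulus; test concentration not given here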
# print the numeric value only

Below: 5 compounds and their reported z-score.
| compound | reported-property | recorded-value |
| --- | --- | --- |
| CC(C)C(O)C1C=CC2C(=O)NC(=O)C2N1Nc1ccc(Cl)cc1Cl (stereo not drawn) | z-score | -0.644 |
| O=C1c2ccccc2[C@](Cc2ccccc2I)(C(=O)NCCN2CCOCC2)[C@H](c2ccc(CO)cc2)N1C1CCCCC1 | z-score | -1.22 |
| O=C1N(Cc2ccccc2)c2ccccc2[C@@H]2OC(c3ccc(OCCCO)cc3)=N[C@]12CCS(=O)(=O)c1ccccc1 | z-score | 0.144 |
| C=C(CCCC)/C(=C/C[C@H](OC(=O)c1ccncc1)c1ccccc1OCCO)c1cnc2ccccc2c1 | z-score | -2.97 |
| CC(C)NC(=O)[C@@]1(c2ccc([N+](=O)[O-])cc2)CC(=O)N(C2CCCCC2)[C@@H]1c1ccc(CO)cc1I | z-score | -2.58 |

**Query** Can you share its z-score? I mean this compound: COC(=O)[C@]1(CCC(=O)OC(C)(C)C)N=C(c2ccc(OCCCO)cc2)O[C@@H]1c1ccccc1CN=[N+]=[N-]
**Result** -3.95

**Query** What z-score value was documented for this compound, CC(=O)NCCCC[C@@H]1NC(=O)[C@H]2C[C@@H](C(=O)NCCCCCCNC(=O)CS)[C@@H](c3ccc(O)cc3)N2C1=O ?
**Result** 0.0535

**Query** Look up z-score: C=C(/C(=C/C[C@H](OC(C)=O)c1ccc(CO)o1)c1cc(C(=O)OC)ccc1OC)C(C)C
**Result** -2.03
